Attribution: ChEMBL document CHEMBL4610112

Biological target: Bromodomain-containing protein 4 (Homo sapiens)
Experiment: Displacement of APC-labeled biotinylated-avidin from Euphorium-chelated recombinant human BRD4 bromodomain 1 expressed in Escherichia coli preincubated for 15 mins followed by APC-labeled biotinylated-avidin addition and measured after 1 hr under dark condition by TR-FRET assay
pIC50: −log10 of the molar value.
Mark not met for pIC50 values under 7, and met for everything at or above.

INSERT INTO assay_data (structure_notation, assayed_target, label_value) VALUES
  ('CCS(=O)(=O)Nc1cc(-c2cn(C)c3c(O)nccc23)cc2c1cnn2Cc1ccc(F)cc1', 'Bromodomain-containing protein 4 (Homo sapiens)', 'met'),
  ('CC(C)C(=O)Nc1cc(-c2cn(C)c3c(=O)[nH]ccc23)cc2c1ccn2C(C)(c1ccccn1)c1ccccn1', 'Bromodomain-containing protein 4 (Homo sapiens)', 'met'),
  ('Cn1cc(-c2cc(NS(C)(=O)=O)cc3ccn(Cc4ccc(F)cc4)c23)c2cc[nH]c(=O)c21', 'Bromodomain-containing protein 4 (Homo sapiens)', 'not met'),
  ('Cc1cc(F)ccc1Cn1ccc2cc(NS(C)(=O)=O)cc(-c3cn(C)c4c(=O)[nH]ccc34)c21', 'Bromodomain-containing protein 4 (Homo sapiens)', 'not met'),
  ('Cn1cc(-c2cc(C(C)(C)O)c3ccn(C(C)(c4ccccn4)c4ccccn4)c3c2)c2cc[nH]c(=O)c21', 'Bromodomain-containing protein 4 (Homo sapiens)', 'met');

Attention now shifts to the item below.
**Q:** Decide: pIC50 of Cn1cc(-c2cc(NS(C)(=O)=O)c3ccn(C(C)(c4ccccn4)c4ccccn4)c3c2)c2cc[nH]c(=O)c21 >= 7?
**A:** met

====

Molecular target: Bromodomain-containing protein 4 (Homo sapiens, UniProt O60885)
Experiment: Displacement of APC-labeled biotinylated-avidin from Euphorium-chelated recombinant human BRD4 bromodomain 1 expressed in Escherichia coli preincubated for 15 mins followed by APC-labeled biotinylated-avidin addition and measured after 1 hr under dark condition by TR-FRET assay
IC50 values for the molecules below.

Recorded results for 3 molecules are shown here.
INSERT INTO measurements (structure_notation, assayed_target, reported_metric, recorded_value) VALUES
  ('CCS(=O)(=O)Nc1cccc2c1nc(-c1cn(C)c3c(=O)[nH]ccc13)n2Cc1ccc(F)cc1', 'Bromodomain-containing protein 4 (Homo sapiens, UniProt O60885)', 'IC50', '1430 nM'),
  ('Cc1cccc(C)c1Cn1ccc2c(NS(C)(=O)=O)cc(-c3cn(C)c4c(=O)[nH]ccc34)cc21', 'Bromodomain-containing protein 4 (Homo sapiens, UniProt O60885)', 'IC50', '175 nM'),
  ('Cn1cc(-c2cc(NS(C)(=O)=O)c3ccn(Cc4cccc(F)c4)c3c2)c2cc[nH]c(=O)c21', 'Bromodomain-containing protein 4 (Homo sapiens, UniProt O60885)', 'IC50', '174 nM');

Field: next molecule
**Q:** Quick check: IC50 of Cn1cc(-c2cc(NS(C)(=O)=O)c3ccn(CC4(C)COC4)c3c2)c2cc[nH]c(=O)c21 ?
**A:** 180 nM

====

Assay: Induction of thrombocytopenia in Sprague-Dawley rat assessed as platelet count […] at 25 mg/kg, po administered via gavage daily for 10 days (reference value: […])
Type: organism-based
Conditions: in vivo, 240 h
REPORTED METRIC: platelet count

**Q:** Requested field: platelet count. Item: CCS(=O)(=O)Nc1cc(-c2cn(C)c3c(=O)[nH]ccc23)cc2c1ccn2C(C)(c1ccccn1)c1ccccn1.Cl
**A:** 1050 10^3/µL

====

Biological target: UniProtKB Q12809
Sequence (Q12809 whole entry): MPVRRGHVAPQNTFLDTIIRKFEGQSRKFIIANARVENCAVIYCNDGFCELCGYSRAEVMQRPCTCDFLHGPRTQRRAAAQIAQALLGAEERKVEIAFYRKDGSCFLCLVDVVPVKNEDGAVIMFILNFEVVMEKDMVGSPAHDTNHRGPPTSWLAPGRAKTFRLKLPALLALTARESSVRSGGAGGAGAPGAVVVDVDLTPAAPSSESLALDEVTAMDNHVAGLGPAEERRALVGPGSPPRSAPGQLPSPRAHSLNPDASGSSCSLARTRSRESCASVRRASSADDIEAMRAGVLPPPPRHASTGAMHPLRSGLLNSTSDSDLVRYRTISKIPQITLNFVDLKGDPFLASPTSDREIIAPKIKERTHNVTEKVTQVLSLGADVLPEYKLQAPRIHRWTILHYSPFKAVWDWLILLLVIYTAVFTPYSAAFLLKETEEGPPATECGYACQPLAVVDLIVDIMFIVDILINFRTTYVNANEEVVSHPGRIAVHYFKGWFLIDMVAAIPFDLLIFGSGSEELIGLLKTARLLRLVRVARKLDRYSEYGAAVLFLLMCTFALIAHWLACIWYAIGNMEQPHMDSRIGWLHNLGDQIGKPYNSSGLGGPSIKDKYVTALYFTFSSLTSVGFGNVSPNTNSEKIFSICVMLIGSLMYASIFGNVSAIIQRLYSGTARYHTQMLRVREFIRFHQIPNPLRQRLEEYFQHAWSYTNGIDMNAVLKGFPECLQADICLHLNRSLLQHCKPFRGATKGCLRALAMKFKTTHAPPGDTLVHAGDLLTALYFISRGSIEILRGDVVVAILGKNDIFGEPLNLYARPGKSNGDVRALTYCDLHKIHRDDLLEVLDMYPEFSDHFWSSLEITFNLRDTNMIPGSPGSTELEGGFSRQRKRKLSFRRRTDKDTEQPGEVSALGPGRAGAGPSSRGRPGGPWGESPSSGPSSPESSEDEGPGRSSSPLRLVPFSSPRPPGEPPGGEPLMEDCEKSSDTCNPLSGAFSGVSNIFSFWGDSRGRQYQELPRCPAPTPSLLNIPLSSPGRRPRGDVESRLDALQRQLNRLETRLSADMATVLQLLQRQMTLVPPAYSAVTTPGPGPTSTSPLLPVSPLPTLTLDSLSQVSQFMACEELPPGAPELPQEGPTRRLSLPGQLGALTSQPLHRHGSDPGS
Assay: Inhibition of human ERG stably expressed in HEK293 cells
REPORTED METRIC: pIC50
FYI, pIC50 means -log10 of a concentration in mol per litre.

**Q:** Consider the compound shown here: CCS(=O)(=O)Nc1cc(-c2cn(C)c3c(=O)[nH]ccc23)cc2c1ccn2C(C)(c1ccccn1)c1ccccn1.Cl What is its recorded pIC50?
**A:** 4.53

====

Biological target: Bromodomain-containing protein 7 (Homo sapiens, UniProt Q9NPI1)
Experiment: Binding affinity to human partial length BRD7 (L125 to R254 residues) expressed in mammalian expression system by BROMOscan assay
pKd: −log10 of the molar value.
REPORTED METRIC: pKd

**Q:** State its pKd on Bromodomain-containing protein 7 (Homo sapiens, UniProt Q9NPI1): CCS(=O)(=O)Nc1cc(-c2cn(C)c3c(=O)[nH]ccc23)cc2c1ccn2C(C)(c1ccccn1)c1ccccn1
**A:** < 5.00

====

Test: Induction of thrombocytopenia in rat assessed as platelet count […] at 3 mg/kg, po administered daily for 10 days (reference value: […])
Format: organism-based
Details: in vivo, 240 h
REPORTED METRIC: platelet count

**Q:** What does the record list as platelet count for CCS(=O)(=O)Nc1ccc(Oc2ccc(F)cc2F)c(-c2cn(C)c(=O)c3[nH]ccc23)c1 ?
**A:** 173 10^3/µL

====

Molecular target: E3 ubiquitin-protein ligase TRIM33 (Homo sapiens)
Sequence (Q9UPN9 whole entry, the tested form may be a part): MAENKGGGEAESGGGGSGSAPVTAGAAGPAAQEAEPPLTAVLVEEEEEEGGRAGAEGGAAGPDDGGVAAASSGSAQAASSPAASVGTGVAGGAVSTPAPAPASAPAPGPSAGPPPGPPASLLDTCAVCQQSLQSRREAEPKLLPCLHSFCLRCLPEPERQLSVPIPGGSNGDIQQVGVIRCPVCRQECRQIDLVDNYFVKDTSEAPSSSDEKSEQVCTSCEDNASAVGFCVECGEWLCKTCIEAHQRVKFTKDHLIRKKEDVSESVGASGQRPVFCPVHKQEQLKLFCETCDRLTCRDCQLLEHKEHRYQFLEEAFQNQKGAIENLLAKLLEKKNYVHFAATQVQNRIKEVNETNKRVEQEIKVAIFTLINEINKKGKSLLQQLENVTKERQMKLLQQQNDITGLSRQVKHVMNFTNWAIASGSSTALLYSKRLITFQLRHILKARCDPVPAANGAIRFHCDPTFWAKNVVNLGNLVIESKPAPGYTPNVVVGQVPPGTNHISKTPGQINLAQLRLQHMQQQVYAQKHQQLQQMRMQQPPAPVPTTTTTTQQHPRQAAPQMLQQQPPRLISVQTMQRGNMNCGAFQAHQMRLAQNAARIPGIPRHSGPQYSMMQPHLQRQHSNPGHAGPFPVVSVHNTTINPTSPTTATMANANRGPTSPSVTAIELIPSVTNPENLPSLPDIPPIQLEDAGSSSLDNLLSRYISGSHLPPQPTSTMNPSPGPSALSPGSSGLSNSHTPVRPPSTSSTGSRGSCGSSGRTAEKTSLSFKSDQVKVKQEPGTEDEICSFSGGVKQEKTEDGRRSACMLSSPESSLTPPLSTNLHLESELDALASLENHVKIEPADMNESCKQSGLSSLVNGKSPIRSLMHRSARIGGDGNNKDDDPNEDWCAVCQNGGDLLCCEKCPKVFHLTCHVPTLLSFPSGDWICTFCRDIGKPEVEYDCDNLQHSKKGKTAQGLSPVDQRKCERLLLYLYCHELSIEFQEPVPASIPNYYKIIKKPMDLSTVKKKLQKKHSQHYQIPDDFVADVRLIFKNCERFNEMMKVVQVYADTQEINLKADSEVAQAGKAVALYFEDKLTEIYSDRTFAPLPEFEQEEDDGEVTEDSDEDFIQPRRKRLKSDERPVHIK
Experiment: Binding affinity to human partial length TRIM33 phd bromodomain (D882 to A1087 residues) expressed in bacterial expression system by BROMOscan assay
pKd: −log10 of the molar value.
REPORTED METRIC: pKd

**Q:** Entry CCS(=O)(=O)Nc1cc(-c2cn(C)c3c(=O)[nH]ccc23)cc2c1ccn2C(C)(c1ccccn1)c1ccccn1 , system E3 ubiquitin-protein ligase TRIM33 (Homo sapiens): what pKd was measured?
**A:** < 5.00

====

Target: Bromodomain adjacent to zinc finger domain protein 2B (Homo sapiens, UniProt Q9UIF8)
Assay: Binding affinity to human partial length BAZ2B (S2054 to S2168 residues) expressed in bacterial expression system by BROMOscan assay
REPORTED METRIC: Kd

**Q:** Query (compound): CCS(=O)(=O)Nc1cc(-c2cn(C)c3c(=O)[nH]ccc23)cc2c1ccn2C(C)(c1ccccn1)c1ccccn1 ; field requested: Kd
**A:** > 10 µM

====

Each item that follows carries a reported inhibition at 10 µM.
Target: CYP2C8 (Homo sapiens, UniProt P10632)
Sequence (P10632 whole entry): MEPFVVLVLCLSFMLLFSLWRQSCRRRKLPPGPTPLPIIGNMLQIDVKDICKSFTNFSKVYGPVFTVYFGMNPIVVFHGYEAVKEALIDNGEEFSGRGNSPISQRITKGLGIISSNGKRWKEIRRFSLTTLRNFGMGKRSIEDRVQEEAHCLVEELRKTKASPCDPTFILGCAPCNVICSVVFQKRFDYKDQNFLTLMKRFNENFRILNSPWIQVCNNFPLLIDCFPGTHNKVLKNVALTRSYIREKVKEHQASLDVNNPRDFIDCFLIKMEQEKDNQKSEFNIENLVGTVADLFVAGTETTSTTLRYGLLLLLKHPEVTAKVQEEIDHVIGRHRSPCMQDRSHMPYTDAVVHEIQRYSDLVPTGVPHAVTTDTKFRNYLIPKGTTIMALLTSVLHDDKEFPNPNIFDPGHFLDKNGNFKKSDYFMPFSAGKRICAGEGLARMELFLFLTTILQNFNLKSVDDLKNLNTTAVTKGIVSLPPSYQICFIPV
Test: Inhibition of human CYP2C8 at 10 uM
Assay type: ADME
Only the number, expressed in %, is required.

INSERT INTO assay_data (structure_notation, recorded_value) VALUES
  ('CCS(=O)(=O)Nc1cc(-c2cn(C)c3c(=O)[nH]ccc23)cc2c1ccn2C(C)(c1ccccn1)c1ccccn1.Cl', 84.2);

Turning now to a further record.
**Q:** Would you mind telling me what inhibition at 10 µM value was observed for CC(=O)O[C@H]1C(=O)[C@@]2(C)[C@H]([C@H](OC(=O)c3ccccc3)[C@]3(O)C[C@H](OC(=O)[C@H](O)[C@@H](NC(=O)c4ccccc4)c4ccccc4)C(C)=C1C3(C)C)[C@]1(OC(C)=O)CO[C@@H]1C[C@@H]2O ?
**A:** 80.9

====

Molecular target: Cytochrome P450 3A4 (Homo sapiens)
Sequence (P08684 whole entry): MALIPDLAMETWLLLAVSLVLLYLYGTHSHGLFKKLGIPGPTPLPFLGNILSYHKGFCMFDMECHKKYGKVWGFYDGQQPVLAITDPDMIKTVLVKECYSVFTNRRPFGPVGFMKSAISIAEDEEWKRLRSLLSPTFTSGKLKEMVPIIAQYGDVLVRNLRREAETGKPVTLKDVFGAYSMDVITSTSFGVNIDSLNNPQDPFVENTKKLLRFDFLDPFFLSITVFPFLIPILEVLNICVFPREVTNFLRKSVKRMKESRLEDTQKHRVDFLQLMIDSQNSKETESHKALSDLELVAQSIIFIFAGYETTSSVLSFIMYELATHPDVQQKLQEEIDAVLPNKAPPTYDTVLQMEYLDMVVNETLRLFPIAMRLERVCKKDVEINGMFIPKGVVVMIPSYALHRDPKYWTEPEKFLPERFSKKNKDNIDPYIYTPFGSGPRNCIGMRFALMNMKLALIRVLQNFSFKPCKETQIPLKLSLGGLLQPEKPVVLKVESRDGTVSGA
pIC50: −log10 of the molar value.
REPORTED METRIC: pIC50

**Q:** Under Cytochrome P450 3A4 (Homo sapiens): pIC50 value of CCS(=O)(=O)Nc1cc(-c2cn(C)c3c(=O)[nH]ccc23)cc2c1ccn2C(C)(c1ccccn1)c1ccccn1 ?
**A:** ≤ 5.00

====

Target: Bromodomain-containing protein 4 (Homo sapiens, UniProt O60885)
Assay: Displacement of APC-labeled biotinylated-avidin from Euphorium-chelated recombinant human BRD4 bromodomain 2 expressed in Escherichia coli preincubated for 15 mins followed by APC-labeled biotinylated-avidin addition and measured after 1 hr under dark condition by TR-FRET assay
REPORTED METRIC: IC50 (nM)
Number only, in nM; omit the unit.

Example cases with answers are listed next.
INSERT INTO assay_data (structure_notation, reported_metric, recorded_value) VALUES
  ('CC(=O)Nc1cc(-c2cn(C)c3c(=O)[nH]ccc23)cc2c1ccn2C(C)(c1ccccn1)c1ccccn1', 'IC50', 21.6),
  ('CC(C)C(=O)Nc1cc(-c2cn(C)c3c(=O)[nH]ccc23)cc2c1ccn2C(C)(c1ccccn1)c1ccccn1', 'IC50', 62.8),
  ('Cn1cc(-c2cc(C(C)(C)O)c3ccn(C(C)(c4ccccn4)c4ccccn4)c3c2)c2cc[nH]c(=O)c21', 'IC50', 220);

Continue with the next molecule.
**Q:** Requested read-out IC50, target or system Bromodomain-containing protein 4 (Homo sapiens, UniProt O60885), entry Cn1cc(-c2cc(NS(C)(=O)=O)c3ccn(C(C)(c4ccccn4)c4ccccn4)c3c2)c2cc[nH]c(=O)c21
**A:** 12.7

====

Target: Bromodomain-containing protein 8 (Homo sapiens, UniProt Q9H0E9)
Sequence (Q9H0E9 whole entry, the tested form may be a part): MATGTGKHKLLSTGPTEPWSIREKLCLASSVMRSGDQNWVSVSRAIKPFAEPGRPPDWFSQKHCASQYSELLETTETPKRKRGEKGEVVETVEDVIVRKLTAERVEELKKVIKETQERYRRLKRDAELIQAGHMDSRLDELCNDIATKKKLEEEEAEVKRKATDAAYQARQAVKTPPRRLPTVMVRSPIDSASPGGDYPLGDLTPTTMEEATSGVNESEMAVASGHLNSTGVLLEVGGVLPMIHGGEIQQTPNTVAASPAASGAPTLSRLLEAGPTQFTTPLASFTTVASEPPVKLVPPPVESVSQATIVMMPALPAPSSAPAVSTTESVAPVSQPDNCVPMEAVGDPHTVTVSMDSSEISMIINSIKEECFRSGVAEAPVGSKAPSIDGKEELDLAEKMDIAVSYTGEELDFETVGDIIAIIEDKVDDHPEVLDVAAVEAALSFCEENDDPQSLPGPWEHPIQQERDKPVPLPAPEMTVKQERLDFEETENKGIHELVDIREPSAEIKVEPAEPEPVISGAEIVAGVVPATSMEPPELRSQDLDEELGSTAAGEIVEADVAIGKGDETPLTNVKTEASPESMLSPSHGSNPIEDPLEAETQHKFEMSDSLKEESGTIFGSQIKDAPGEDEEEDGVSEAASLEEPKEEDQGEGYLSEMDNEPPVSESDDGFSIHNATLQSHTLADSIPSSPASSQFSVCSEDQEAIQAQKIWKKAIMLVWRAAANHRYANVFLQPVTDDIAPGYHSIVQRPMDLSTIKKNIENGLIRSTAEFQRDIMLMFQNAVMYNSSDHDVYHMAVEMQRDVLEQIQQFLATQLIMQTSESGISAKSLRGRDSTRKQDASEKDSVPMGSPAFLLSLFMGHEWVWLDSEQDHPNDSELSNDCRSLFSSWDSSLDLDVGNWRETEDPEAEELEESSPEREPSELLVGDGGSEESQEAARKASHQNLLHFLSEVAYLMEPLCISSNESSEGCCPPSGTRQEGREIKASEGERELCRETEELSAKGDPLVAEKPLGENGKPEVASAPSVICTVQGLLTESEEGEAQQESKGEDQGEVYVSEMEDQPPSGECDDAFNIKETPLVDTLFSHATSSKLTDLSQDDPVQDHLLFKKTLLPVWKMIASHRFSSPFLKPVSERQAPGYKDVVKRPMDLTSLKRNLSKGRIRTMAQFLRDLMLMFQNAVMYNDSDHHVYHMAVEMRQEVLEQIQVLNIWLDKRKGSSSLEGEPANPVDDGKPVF
Assay: Binding affinity to human partial length BRD8 BD2 (D1095 to F1235 residues) expressed in mammalian expression system BROMOscan assay
REPORTED METRIC: Kd

**Q:** State the recorded Kd for this entry: CCS(=O)(=O)Nc1cc(-c2cn(C)c3c(=O)[nH]ccc23)cc2c1ccn2C(C)(c1ccccn1)c1ccccn1
**A:** > 10 µM
